Reference source: the supplement of paper PMC7125110

Task for the reader: assign each of the following variants its reported self-cleavage kobs at 40 uM GlcN6P.
B1: glmS ribozyme (parent)
chain: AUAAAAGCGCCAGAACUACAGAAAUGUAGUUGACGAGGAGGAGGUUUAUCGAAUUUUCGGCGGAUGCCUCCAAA

# Variants of: B1
# PROTOCOL SUMMARY: self-cleavage kobs at 40 uM GlcN6P; higher = faster cleavage; RNA array
# EXPERIMENTAL PARAMETERS: with glucosamine-6-phosphate
This sample holds only a part of the variants without activity.

Ask: Return self-cleavage kobs at 40 uM GlcN6P for the following variant: G40U G44C
Reply: < 1e-05 s⁻¹

Ask: Return self-cleavage kobs at 40 uM GlcN6P for the following variant: G32C C34U A64G C68G
Reply: < 1e-05 s⁻¹

Ask: Return self-cleavage kobs at 40 uM GlcN6P for the following variant: G38C U57C
Reply: < 1e-05 s⁻¹

Ask: Return self-cleavage kobs at 40 uM GlcN6P for the following variant: A14U G40A U56G
Reply: 0.000117 s⁻¹

Ask: Return self-cleavage kobs at 40 uM GlcN6P for the following variant: U31C G51A
Reply: < 1e-05 s⁻¹

Ask: Return self-cleavage kobs at 40 uM GlcN6P for the following variant: A14U U54A
Reply: 0.000324 s⁻¹

Ask: Return self-cleavage kobs at 40 uM GlcN6P for the following variant: A6G C61A
Reply: < 1e-05 s⁻¹

Ask: Return self-cleavage kobs at 40 uM GlcN6P for the following variant: C10G C11G
Reply: < 1e-05 s⁻¹

Ask: Return self-cleavage kobs at 40 uM GlcN6P for the following variant: G9U A14G G59C C68U
Reply: < 1e-05 s⁻¹

Ask: Return self-cleavage kobs at 40 uM GlcN6P for the following variant: G32U A52G C58A C70A
Reply: 5.29e-05 s⁻¹

Ask: Return self-cleavage kobs at 40 uM GlcN6P for the following variant: G37U A39U C70G
Reply: < 1e-05 s⁻¹

Ask: Return self-cleavage kobs at 40 uM GlcN6P for the following variant: U30G G62U
Reply: < 1e-05 s⁻¹

Ask: Return self-cleavage kobs at 40 uM GlcN6P for the following variant: C16G G37A C68U
Reply: < 1e-05 s⁻¹

Ask: Return self-cleavage kobs at 40 uM GlcN6P for the following variant: A12C A42G C70A
Reply: < 1e-05 s⁻¹

Ask: Return self-cleavage kobs at 40 uM GlcN6P for the following variant: C10G G37A
Reply: < 1e-05 s⁻¹

Ask: Return self-cleavage kobs at 40 uM GlcN6P for the following variant: C10U U55C
Reply: < 1e-05 s⁻¹

Ask: Return self-cleavage kobs at 40 uM GlcN6P for the following variant: G35C G38C C58A
Reply: < 1e-05 s⁻¹

Ask: Return self-cleavage kobs at 40 uM GlcN6P for the following variant: U46G U54A
Reply: 0.000165 s⁻¹

Ask: Return self-cleavage kobs at 40 uM GlcN6P for the following variant: C10U A53G
Reply: < 1e-05 s⁻¹

Ask: Return self-cleavage kobs at 40 uM GlcN6P for the following variant: G29C U49G
Reply: < 1e-05 s⁻¹

Ask: Return self-cleavage kobs at 40 uM GlcN6P for the following variant: C10A U45G A53G
Reply: < 1e-05 s⁻¹

Ask: Return self-cleavage kobs at 40 uM GlcN6P for the following variant: G38C A39U G60U
Reply: < 1e-05 s⁻¹

Ask: Return self-cleavage kobs at 40 uM GlcN6P for the following variant: A14G C16U U45G C67U
Reply: 0.00026 s⁻¹

Ask: Return self-cleavage kobs at 40 uM GlcN6P for the following variant: A12G A15U U49A U54G
Reply: < 1e-05 s⁻¹

Ask: Return self-cleavage kobs at 40 uM GlcN6P for the following variant: G35U G37C G40U U56A U65A
Reply: < 1e-05 s⁻¹

Ask: Return self-cleavage kobs at 40 uM GlcN6P for the following variant: C11A C34G G43C G51U G60C
Reply: < 1e-05 s⁻¹

Ask: Return self-cleavage kobs at 40 uM GlcN6P for the following variant: G40A C61U
Reply: < 1e-05 s⁻¹

Ask: Return self-cleavage kobs at 40 uM GlcN6P for the following variant: G13C A48G G66U C71G
Reply: < 1e-05 s⁻¹

Ask: Return self-cleavage kobs at 40 uM GlcN6P for the following variant: A15U G60U
Reply: < 1e-05 s⁻¹

Ask: Return self-cleavage kobs at 40 uM GlcN6P for the following variant: U31A U65C U69C
Reply: < 1e-05 s⁻¹

Ask: Return self-cleavage kobs at 40 uM GlcN6P for the following variant: G44U C67A
Reply: 0.000868 s⁻¹

Ask: Return self-cleavage kobs at 40 uM GlcN6P for the following variant: G35A C68A
Reply: < 1e-05 s⁻¹

Ask: Return self-cleavage kobs at 40 uM GlcN6P for the following variant: A14G G51C A53C
Reply: < 1e-05 s⁻¹

Ask: Return self-cleavage kobs at 40 uM GlcN6P for the following variant: A64U G66U
Reply: < 1e-05 s⁻¹

Ask: Return self-cleavage kobs at 40 uM GlcN6P for the following variant: C8G U54G
Reply: < 1e-05 s⁻¹

Ask: Return self-cleavage kobs at 40 uM GlcN6P for the following variant: G35C C71U
Reply: < 1e-05 s⁻¹

Ask: Return self-cleavage kobs at 40 uM GlcN6P for the following variant: A12C A15C U47A U49A
Reply: < 1e-05 s⁻¹

Ask: Return self-cleavage kobs at 40 uM GlcN6P for the following variant: G37A A53U
Reply: 4.73e-05 s⁻¹

Ask: Return self-cleavage kobs at 40 uM GlcN6P for the following variant: U46G A52U
Reply: < 1e-05 s⁻¹

Ask: Return self-cleavage kobs at 40 uM GlcN6P for the following variant: C34A G63U
Reply: < 1e-05 s⁻¹

Ask: Return self-cleavage kobs at 40 uM GlcN6P for the following variant: G9U C34A G35C G43U
Reply: < 1e-05 s⁻¹

Ask: Return self-cleavage kobs at 40 uM GlcN6P for the following variant: U31G A39U C61U
Reply: < 1e-05 s⁻¹

Ask: Return self-cleavage kobs at 40 uM GlcN6P for the following variant: G29A G35A C68G
Reply: 0.000947 s⁻¹

Ask: Return self-cleavage kobs at 40 uM GlcN6P for the following variant: C10G U55G
Reply: < 1e-05 s⁻¹

Ask: Return self-cleavage kobs at 40 uM GlcN6P for the following variant: G41C G44U U47G
Reply: < 1e-05 s⁻¹

Ask: Return self-cleavage kobs at 40 uM GlcN6P for the following variant: A12C U45C
Reply: 3e-05 s⁻¹
